Where do the numbers come from? From patent US6645970B2.

- target_of_assay: Human recombinant PKCθ (Homo sapiens, UniProt Q04759)
- Sequence (Q04759 whole entry): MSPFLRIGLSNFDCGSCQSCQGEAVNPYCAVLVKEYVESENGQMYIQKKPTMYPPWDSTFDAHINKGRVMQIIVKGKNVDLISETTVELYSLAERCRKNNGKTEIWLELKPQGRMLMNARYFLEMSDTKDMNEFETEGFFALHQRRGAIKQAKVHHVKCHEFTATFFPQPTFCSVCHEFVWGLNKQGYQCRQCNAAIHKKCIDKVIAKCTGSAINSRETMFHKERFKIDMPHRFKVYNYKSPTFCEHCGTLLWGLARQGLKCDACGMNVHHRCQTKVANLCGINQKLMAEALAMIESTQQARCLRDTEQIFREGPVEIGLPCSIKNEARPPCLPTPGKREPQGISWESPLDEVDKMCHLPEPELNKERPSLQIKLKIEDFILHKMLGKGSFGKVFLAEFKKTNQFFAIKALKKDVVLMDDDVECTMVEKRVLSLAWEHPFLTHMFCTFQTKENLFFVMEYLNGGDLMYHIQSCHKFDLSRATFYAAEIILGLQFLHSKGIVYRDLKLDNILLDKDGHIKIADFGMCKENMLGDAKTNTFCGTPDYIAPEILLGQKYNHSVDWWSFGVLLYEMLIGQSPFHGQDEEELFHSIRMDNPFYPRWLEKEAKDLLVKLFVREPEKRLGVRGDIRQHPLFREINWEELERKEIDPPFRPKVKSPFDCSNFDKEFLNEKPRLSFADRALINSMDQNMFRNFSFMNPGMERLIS
- method_notes: Protein Kinase C θ Assay
- Assay type: biochemical
- condition_summary: 10 μM ATP
pIC50: −log10 of the molar value.
result_type: pIC50

Incoming: For the molecule `CN1CCN(c2nc(C3=C(c4c[nH]c5ccccc45)C(=O)NC3=O)c3ccccc3n2)CC1` , what pIC50 is on record?
Outgoing: > 8.00

----------
- target_of_assay: Human recombinant PKCα (Homo sapiens)
- method_notes: Protein Kinase Cα Assay
- condition_summary: 10 μM ATP
result_type: IC50 (nM)
Form entry: value (nM) — number only.

Incoming: Return IC50 measured with Human recombinant PKCα (Homo sapiens) given this compound: `Cn1cc(C2=C(c3nc(N4CCNC5(CC5)C4)nc4ccccc34)C(=O)NC2=O)c2ccccc21`
Outgoing: 39
